# credit: patent US20210380703A1

Listed here: items and their measured optical density.
# test system: T1, human ACVR2A (human, UniProt P27037 20-135, limits assumed); also: test concentration or dose not given here
# T1 construct: also called activin receptor, type II A
# T1 sequence (P27037 20-135 limits assumed): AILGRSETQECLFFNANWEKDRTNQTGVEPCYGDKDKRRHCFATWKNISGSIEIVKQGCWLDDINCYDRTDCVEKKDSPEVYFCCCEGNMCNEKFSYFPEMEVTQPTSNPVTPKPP
# protocol description: ELISA
Write the value in OD as a bare number.

The examples below pair each entry with its known result.
365_G09 (antibody, V domains shown, Group III) VH: EVQLLESGGGLVQPGGSLRLSCAASGFTFSSYSMNWVRQAPGKGLEWVSGINYNGGYKSYADSVKGRFTISRDNSKNTLYLQMNSLRAEDTAVYYCARGANWHDTHLDYWGQGTLVTVSS VL: DIQMTQSPSSLSASVGDRVTITCRASQSIITYLNWYQQKPGKAPKLVIYAATSRASGVPSRFSGSGSGTDFTLTISSLQPEDFATYYCQQSYNSPLTFGGGTKVEIK = 2.62
365_G04 (antibody, V domains shown, Group III) VH: EVQLLESGGGLVQPGGSLRLSCAASGFTFDSYSMNWVRQAPGKGLEWVAGINYNGGYTGYADSVKGRFTISRDNSKNTLYLQMNSLRAEDTAVYYCARGANWHDTHLDYWGQGTLVTVSS VL: DIQMTQSPSSLSASVGDRVTITCRASQSIVSYVNWYQQKPGKAPKLVIYAATSLASGVPSRFSGSGSGTDFTLTISSLQPEDFATYYCQQSYDTPLTFGGGTKVEIK = 2.1
367_D11 (antibody, V domains shown, Group I) VH: EVQLLESGGGLVQPGGSLRLSCAASGFTFDSYGMHWVRQAPGKGLEWVSNINYNGGYKSYADSVKGRFTISRDNSKNTLYLQMNSLRAEDTAVYYCARAANWHDTALDYWGQGTLVTVSS VL: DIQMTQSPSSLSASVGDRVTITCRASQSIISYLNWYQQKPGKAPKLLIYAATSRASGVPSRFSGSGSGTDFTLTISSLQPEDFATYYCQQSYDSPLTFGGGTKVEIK = 2.4

Record 375_C03 (antibody, V domains shown, Group II) VH: EVQLLESGGGLVQPGGSLRLSCAASGFTFDSYSMHWVRQAPGKGLEWVSGINYNGGYTSYADSVKGRFTISRDNSKNTLYLQMNSLRAEDTAVYYCARAATWHDTHLDYWGQGTLVTVSS VL: DIQMTQSPSSLSASVGDRVTITCRASQSILSYVNWYQQKPGKAPKLVIYAATSRASGVPSRFSGSGSGTDFTLTISSLQPEDFATYYCQQSYESPLTFGGGTKVEIK . Reported optical density: 3

// field: optical density; key: 365_D03 (antibody, V domains shown, Group II) VH: EVQLLESGGGLVQPGGSLRLSCAASGFTFDDYSMHWVRQAPGKGLEWVASINYNGGYKSYADSVKGRFTISRDNSKNTLYLQMNSLRAEDTAVYYCARAATWHDTHLDYWGQGTLVTVSS VL: DIQMTQSPSSLSASVGDRVTITCRASQSIVSYLNWYQQKPGKAPKLVIYAATSRASGVPSRFSGSGSGTDFTLTISSLQPEDFATYYCQQSYDSPLTFGGGTKVEIK ; value = 2.35
